- measurement.protocol: First-in-human Part 1 single ascending dose blood PK
- Format: in vivo
- measurement.setup: human, blood, oral; single ascending doses, dose-independent; read-out: distribution phase T1/2 (converted)
- Protocol: A first-in-human study was conducted to assess the safety and tolerability, pharmacokinetics (PK) and pharmacodynamics (PD) of single and multiple doses of compound (I) both as once daily (qd) and twice daily (bid) oral administration in healthy volunteers and those with atopic diathesis, to support further clinical development of compound (I) in autoimmune diseases. […] Pharmacokinetic samples were obtained in blood and evaluated in all subjects at all dose levels. […]
experimental.readout: half-life

`C=CC(=O)N(C)CCOc1c(N)ncnc1-c1cc(F)cc(NC(=O)c2ccc(C3CC3)cc2F)c1C` has a reported half-life of ~1 h

----------
- measurement.protocol: First-in-human Part 2 multiple ascending dose q.d. blood and urine PK
- Format: in vivo
- measurement.setup: human, blood, oral, 400 mg, 400 mg qd, Day 1, blood; Median (Min-Max); read-out: AUC0-24
experimental.readout: AUC(0-t) (ng·h/mL)
Report the figure in ng·h/mL without appending any unit label.

C=CC(=O)N(C)CCOc1c(N)ncnc1-c1cc(F)cc(NC(=O)c2ccc(C3CC3)cc2F)c1C [Compound of Formula (I)] has a reported AUC(0-t) of 826

----------
- measurement.protocol: First-in-human Part 3 food effect PK, single 60 mg dose
- Type: in vivo
- measurement.setup: human, whole blood, oral, 60 mg, single dose 60 mg, FED; Mean; read-out: AUC0-24
experimental.readout: AUC(0-t) (ng·h/mL)
Report the figure in ng·h/mL without appending any unit label.

C=CC(=O)N(C)CCOc1c(N)ncnc1-c1cc(F)cc(NC(=O)c2ccc(C3CC3)cc2F)c1C [Compound of Formula (I)] has a reported AUC(0-t) of 264

----------
- measurement.protocol: First-in-human Part 2 multiple ascending dose q.d. blood and urine PK
- Type: in vivo
- measurement.setup: human, whole blood, oral, 400 mg, 400 mg qd, Day 12, blood; Mean ± SD
experimental.readout: AUC(0-inf) (ng·h/mL)
Report the figure in ng·h/mL without appending any unit label.

`C=CC(=O)N(C)CCOc1c(N)ncnc1-c1cc(F)cc(NC(=O)c2ccc(C3CC3)cc2F)c1C` has a reported AUC(0-inf) of 1330

----------
- measurement.protocol: First-in-human Part 2 multiple ascending dose q.d. blood and urine PK
- Assay type: in vivo
- measurement.setup: human, whole blood, oral; 10 mg qd, Day 12, blood; Median (Min-Max); read-out: T½ (converted)
experimental.readout: half-life (min)
Report the figure in min without appending any unit label.

C=CC(=O)N(C)CCOc1c(N)ncnc1-c1cc(F)cc(NC(=O)c2ccc(C3CC3)cc2F)c1C [Compound of Formula (I)] has a reported half-life of 57.7

----------
- measurement.protocol: First-in-human Part 2 multiple ascending dose q.d. blood and urine PK
- Type: in vivo
- measurement.setup: human, blood and urine, oral, 50 mg, 50 mg qd, Day 12; Mean ± SD; read-out: Renal clearance
experimental.readout: CL renal (mL/min)
Report the figure in mL/min without appending any unit label.

`C=CC(=O)N(C)CCOc1c(N)ncnc1-c1cc(F)cc(NC(=O)c2ccc(C3CC3)cc2F)c1C` has a reported CL renal of 20.4

----------
- measurement.protocol: First-in-human Part 3 food effect PK, single 60 mg dose
- Type: in vivo
- measurement.setup: human, blood, oral, 60 mg, single dose 60 mg, FAST; Mean; read-out: AUClast
experimental.readout: AUC(0-t) (ng·h/mL)
Report the figure in ng·h/mL without appending any unit label.

C=CC(=O)N(C)CCOc1c(N)ncnc1-c1cc(F)cc(NC(=O)c2ccc(C3CC3)cc2F)c1C [Compound of Formula (I)] has a reported AUC(0-t) of 196
